Assay: Kinetic aqueous solubility of the compound
Assay type: physicochemical
Conditions: buffer; read-out: Kinetic_solubility
The molecules listed here are annotated with their solubility kinetic.
Could you give me the number in µg/mL? Just the number is fine.

[[record]]
molecule = "O=C(Nc1nncs1)C1=C(c2cnccn2)NC(Nc2nc3ccccc3o2)=NC1c1ccccc1Cl (stereo not given)"
reported_measurement = 2.1


GET /values?readout=solubility kinetic&item= CC1=C(C(=O)Nc2nncs2)C(c2ncccc2Cl)N=C(Nc2nc3ccccc3o2)N1 (stereo not given)
10.6

Requested field: solubility kinetic. Item: CCn1cc(CNC(=O)C2=C(C)NC(Nc3nc4ccc(F)c(N)c4o3)=NC2c2ccccc2Cl)cn1 (stereo not given)
23.9

* * *

Experiment: Stability of compound in rat microsomes assessed as half-life
Assay type: ADME, Microsome
Measure name: half-life

Past entries and their recorded results:
[[record]]
compound = "COC(=O)c1ccccc1CNC(=O)C1=C(C)NC(Nc2nc3ccccc3o2)=NC1c1ccccc1Cl (centres undefined)"
reported_measurement = "1.74 min"

[[record]]
compound = "COc1ccc2oc(NC3=NC(c4ccccc4Cl)C(C(=O)Nc4cc(C(=O)O)ccn4)=C(C)N3)nc2c1 (centres undefined)"
reported_measurement = "> 30 min"

[[record]]
compound = "COc1ccc2nc(NC3=NC(c4ccccc4Cl)C(C(=O)Nc4cc(C(=O)O)ccn4)=C(C)N3)oc2c1 (centres undefined)"
reported_measurement = "> 30 min"

[[record]]
compound = "CCOC(=O)C1=C(C)NC(Nc2nc3ccccc3o2)=NC1c1ccccc1Cl (centres undefined)"
reported_measurement = "19.3 min"

[[record]]
compound = "CC1=C(C(=O)Nc2cc(C(=O)O)ccn2)C(c2ccccc2Cl)N=C(Nc2nc3ccccc3o2)N1C (centres undefined)"
reported_measurement = "> 30 min"


Using the record for CC1=C(C(=O)NCc2cnn(C)c2)C(c2ccc(C)cc2Cl)N=C(Nc2nc3cccnc3o2)N1 (centres undefined) , report its half-life.
3.66 min

// query half-life value for entry CC1=C(C(=O)Nc2ccc([N+](=O)[O-])cc2)C(c2ccccc2Cl)N=C(Nc2nc3ccccc3o2)N1 (centres undefined)
> 30 min

Which half-life value is on record for COc1ccc(C2N=C(Nc3nc4cccc(N)c4o3)NC(C)=C2C(=O)Nc2cc(C(=O)O)ccn2)c(Cl)c1 (racemic) ?
> 30 min

Requested field: half-life. Item: COc1ccc(C2N=C(Nc3nc4ccccc4o3)NC(C)=C2C(=O)Nc2nncs2)c(Cl)c1 (centres undefined)
> 30 min

Field request: half-life | item: CC1=C(C(=O)Nc2cc(C(=O)O)ccn2)C(c2ccc(C)cc2Cl)N=C(Nc2nc3cccc(N)c3o2)N1 (racemic)
> 30 min

Recorded half-life for CC1=C(C(=O)NCc2cnn(C)c2)C(c2ccc(C)cc2Cl)N=C(Nc2nc3cnccc3o2)N1 (centres undefined) , please?
5.12 min

* * *

Assay: Kinetic aqueous solubility of the compound
Assay type: physicochemical
Conditions: buffer; read-out: Kinetic_solubility
Measure name: solubility kinetic

Look up solubility kinetic: CC1=C(C(=O)Nc2ccccn2)C(c2ccccc2Cl)N=C(Nc2nc3ccccc3o2)N1 (centres undefined)
< 1 µg/mL

Quick check: solubility kinetic of CC1=C(C(=O)Nc2cc(C(=O)O)ccn2)C(c2ccc(N3CCOCC3)cc2Cl)N=C(Nc2nc3ccc(F)cc3o2)N1 (centres undefined) ?
> 89 µg/mL

* * *

Assay: Inhibition of recombinant mouse GALK1 using ATP as substrate incubated for 1 hr and measured by Kinase-Glo assay
Conditions: read-out: IC50
pIC50: −log10 of the molar value.
Returns one of Criterion met or Criterion not met; Criterion met when pIC50 is >= 5.

Example entries and their recorded answers appear below.
[[record]]
molecule = "CC1=C(C(=O)Nc2cccc(-c3nnn[nH]3)c2)C(c2ccccc2Cl)N=C(Nc2nc3ccccc3o2)N1 (stereo not drawn)"
label_class = "Criterion not met"

[[record]]
molecule = "COC(=O)c1ccnc(NC(=O)C2=C(C)NC(Nc3nc4ccccc4o3)=N[C@H]2c2ccccc2Cl)c1"
label_class = "Criterion met"

[[record]]
molecule = "CC1=C(C(=O)Nc2ccc(C(N)=O)cn2)C(c2ccccc2Cl)N=C(Nc2nc3ccc(F)cc3o2)N1 (stereo not drawn)"
label_class = "Criterion met"


Is it the case that CC1=C(C(=O)Nc2nncs2)C2(CCSCC2)N=C(Nc2nc3ccccc3o2)N1 has pIC50 reaching or exceeding 5?
Criterion not met

Decide: pIC50 of CC1=C(C(=O)NCc2cnn(C)c2)[C@@H](c2ccc(C)cc2Cl)N=C(Nc2nc3cccc(N)c3o2)N1 >= 5?
Criterion not met

* * *

Experiment: Inhibition of recombinant mouse GALK1 using ATP as substrate incubated for 1 hr and measured by Kinase-Glo assay
Conditions: read-out: IC50
Measure name: IC50 (µM)
Numbers only here, please. The scale is µM.

[[record]]
compound = "CC1=C(C(=O)Nc2cc(C(=O)O)ccn2)C(c2ccccc2Cl)N=C(Nc2nc3cc(Cl)ccc3o2)N1 (centres undefined)"
reported_measurement = 6.11

[[record]]
compound = "CC1=C(C(=O)Nc2cc(C(=O)O)ccn2)C(c2ccc(N3CCCC3)cc2Cl)N=C(Nc2nc3ccc(F)cc3o2)N1 (centres undefined)"
reported_measurement = 10.9

[[record]]
compound = "CC1=C(C(=O)Nc2cc(N(C)C)ccn2)C(c2ccc(C)cc2Cl)N=C(Nc2nc3cccc(N)c3o2)N1 (centres undefined)"
reported_measurement = 15.3


We next turn to a different compound, shown below.
GET /values?readout=IC50&item= CC1=C(C(=O)Nc2cc(C(=O)O)ccn2)C(c2ccc(C)cc2Cl)N=C(Nc2nc3c(o2)CCCC3)N1 (centres undefined)
4.32

* * *

Species: Homo sapiens
Assay: Inhibition of human GALK1 K252A/E253A double mutant relative to control
Parameters: concentration or dose not given beside the values
Settings: concentration not given here
Measure name: inhibition (%)
Respond numerically; units are % and should not be typed.

[[record]]
molecule = "CC1=C(C(=O)NCc2nc3ccccc3n2C)C(c2ccccc2Cl)N=C(Nc2nc3ccccc3o2)N1 (stereo not drawn)"
measure_name = "inhibition"
unit = "%"
reported_measurement = 48

[[record]]
molecule = "CC1=C(C(=O)Nc2cc(C(=O)O)ccn2)C(c2ccccc2Cl)N=C(Nc2nc3cc(F)ccc3o2)N1 (stereo not drawn)"
measure_name = "inhibition"
unit = "%"
reported_measurement = 100

[[record]]
molecule = "COc1cccc(C2N=C(Nc3nc4ccc(F)cc4o3)NC(C)=C2C(=O)Nc2cc(C(=O)O)ccn2)c1Cl (stereo not drawn)"
measure_name = "inhibition"
unit = "%"
reported_measurement = 100


Would you mind telling me what inhibition value was observed for CC1=C(C(=O)NCc2cncs2)C(c2ccccc2Cl)N=C(Nc2nc3ccccc3o2)N1 (stereo not drawn) ?
84

Item CC1=C(C(=O)Nc2cc(C(=O)O)ccn2)C(c2cccc(C(F)(F)F)c2)N=C(Nc2nc3ccc(F)cc3o2)N1 (stereo not drawn) has what recorded inhibition?
90

Name the recorded inhibition for CC1=C(C(=O)Nc2cc(C(=O)O)ccn2)C(c2ccccc2Cl)N=C(Nc2nc3ccc(C)cc3o2)N1 (stereo not drawn) .
100

Item CC1=C(C(=O)Nc2cc(C(=O)O)ccn2)C(c2ccccc2Cl)N=C(Nc2nc3c(C)cccc3o2)N1 (stereo not drawn) has what recorded inhibition?
100

Fill blank: measured inhibition of the molecule CC1=C(C(=O)Nc2cc(C(=O)O)ccn2)C(c2ccccc2Cl)N=C(Nc2nc3ccc(F)cc3o2)N1 (racemic) is ____.
100

* * *

Measured half-life accompanies every entry in the list below.
Experiment: Stability of compound in rat microsomes assessed as half-life
Assay type: ADME, Microsome

[[record]]
compound = "CC1=C(C(=O)Nc2cc(C(=O)O)ccn2)C(c2ccccc2Cl)N=C(Nc2nc3c(F)cccc3o2)N1 (stereo not given)"
measure_name = "half-life"
reported_measurement = "> 30 min"

[[record]]
compound = "CC1=C(C(=O)Nc2cccc(C(=O)O)n2)C(c2ccccc2Cl)N=C(Nc2nc3ccccc3o2)N1 (stereo not given)"
measure_name = "half-life"
reported_measurement = "> 30 min"


Request the reported half-life associated with CC1=C(C(=O)Nc2nncs2)C(c2ccc(Cl)cc2Cl)N=C(Nc2nc3ccccc3o2)N1 (stereo not given)
> 30 min

If you can, please state the reported half-life value of CC1=C(C(=O)Nc2nncs2)C(c2nn(C)cc2Cl)N=C(Nc2nc3ccccc3o2)N1 (stereo not given) .
> 30 min

Entry under review: CCn1cc(CNC(=O)C2=C(C)NC(Nc3nc4ccc(F)c(N)c4o3)=NC2c2ccccc2Cl)cn1 (stereo not given) . Reported half-life?
17.7 min

* * *

Test: Inhibition of recombinant mouse GALK1 using ATP as substrate incubated for 1 hr and measured by Kinase-Glo assay
Settings: read-out: IC50
Reported pIC50 values for a set of compounds
Interpret pIC50 as the negative base-10 log of the concentration measured in mol/L.

Example results:
[[record]]
compound = "CC1=C(C(=O)Nc2cc(C(=O)O)ccn2)C(c2ccc(C(F)(F)F)cc2Cl)N=C(Nc2nc3ccc(F)cc3o2)N1 (stereo not given)"
reported_measurement = 4.96

[[record]]
compound = "CC1=C(C(=O)NCCN(C)C)C(c2ccccc2Cl)N=C(Nc2nc3ccccc3o2)N1 (stereo not given)"
reported_measurement = 4.81

[[record]]
compound = "COC(=O)c1ccc(CNC(=O)C2=C(C)NC(Nc3nc4ccccc4o3)=NC2c2ccccc2Cl)cc1 (stereo not given)"
reported_measurement = 5.06


Consider the compound shown here: COC(=O)c1cc(NC(=O)C2=C(C)NC(Nc3nc4ccccc4o3)=NC2c2ccccc2Cl)ccn1 (stereo not given) What is its recorded pIC50?
4.96

Need pIC50, item CC1=C(C(=O)Nc2cc(C(=O)O)ccn2)C(c2cccc(F)c2Cl)N=C(Nc2nc3ccc(F)cc3o2)N1 (stereo not given)
4.81

pIC50 for CC1=C(C(=O)Nc2cc(C(=O)O)ccn2)C(c2cc(C(=O)O)ccc2Cl)N=C(Nc2nc3ccc(F)cc3o2)N1 (stereo not given) ?
4.91

Give the measured pIC50 of COC(=O)Cc1ccc(NC(=O)C2=C(C)NC(Nc3nc4ccccc4o3)=NC2c2ccccc2Cl)cc1 (stereo not given) .
4.91

Field request: pIC50 | item: CC1=C(C(=O)Nc2nncs2)C(c2ccccc2C(F)(F)F)N=C(Nc2nc3ccccc3o2)N1 (stereo not given)
4.91

Look up pIC50: CC1=C(C(=O)Nc2nncs2)C(c2nn(C)cc2Cl)N=C(Nc2nc3ccccc3o2)N1 (stereo not given)
4.76

Given the entry CC1=C(C(=O)Nc2nnc(-c3cccnc3)s2)C(c2ccccc2Cl)N=C(Nc2nc3cc(Cl)ccc3o2)N1 (stereo not given) , report its measured pIC50.
4.71
